Test system: E.faecalis ATCC 29212
The entries below come with measured MIC values attached.
Readout type: MIC (mg/L)

> print(dat)
                                   compound        target.of.assay  display.unit  reading.qualifier  value.reported
1  C[Si]1(C)CCN(c2ccc(N3C[C@H](CN)OC3=O)cc2F)CC1 [NDS-10057]  E.faecalis ATCC 29212          mg/L                  >              32
2  C[Si]1(C)CCN(c2ccc(N3C[C@H](CO)OC3=O)cc2F)CC1 [NDS-10059]  E.faecalis ATCC 29212          mg/L                  =              32
3  CC(=O)NC[C@H]1CN(c2cc(F)c(N3CC[Si](C)(C)CC3)c(F)c2)C(=O)O1 [NDS-10028]  E.faecalis ATCC 29212          mg/L                  =               8
4  C[Si]1(C)CCN(c2ccc(N3C[C@H](Cn4ccnn4)OC3=O)cc2F)CC1 [NDS-10060]  E.faecalis ATCC 29212          mg/L                  =               8
5  CC(=O)NCC1CN(c2ccc(N3CC[Si](C)(C)CC3)c(F)c2)C(=O)O1 (centres unmarked) [NDS-10026]  E.faecalis ATCC 29212          mg/L                  >              16

----------
Test system: S.epidermis St 358
I'd appreciate it if you marked entries yes when MIC is lower than 20 µg/mL and no when it is not.

> print(dat)
                                   compound     target.of.assay  label.value
1  C[Si]1(C)CCN(c2c(F)cc(N3C[C@H](Cn4ccnn4)OC3=O)cc2F)CC1 [NDS-10058]  S.epidermis St 358           no
2  CC(=O)NC[C@H]1CN(c2ccc(N3CCOCC3)c(F)c2)C(=O)O1 [Linezolid, reference compound]  S.epidermis St 358          yes
3  COC(=S)NC[C@H]1CN(c2ccc(N3CC[Si](C)(C)CC3)c(F)c2)C(=O)O1 [NDS-10062]  S.epidermis St 358          yes
4  C[Si]1(C)CCN(c2c(F)cc(N3C[C@H](CO)OC3=O)cc2F)CC1 [NDS-10052]  S.epidermis St 358           no
5  C[Si]1(C)CCN(c2ccc(N3C[C@H](CN)OC3=O)cc2F)CC1 [NDS-10057]  S.epidermis St 358           no
6  C[Si]1(C)CCN(c2ccc(N3C[C@H](Cn4ccnn4)OC3=O)cc2F)CC1 [NDS-10060]  S.epidermis St 358          yes
7  CC(=O)NC[C@H]1CN(c2ccc(N3CC[Si](C)(C)CC3)c(F)c2)C(=O)O1 [NDS-10024]  S.epidermis St 358          yes
8  C[Si]1(C)CCN(c2c(F)cc(N3C[C@H](CN)OC3=O)cc2F)CC1 [NDS-10054]  S.epidermis St 358          yes
9  COC(=O)NC[C@H]1CN(c2ccc(N3CC[Si](C)(C)CC3)c(F)c2)C(=O)O1 [NDS-10061]  S.epidermis St 358           no
